target_system: UniProt:P01116
Sequence (P01116 1-188 isoform P01116-2): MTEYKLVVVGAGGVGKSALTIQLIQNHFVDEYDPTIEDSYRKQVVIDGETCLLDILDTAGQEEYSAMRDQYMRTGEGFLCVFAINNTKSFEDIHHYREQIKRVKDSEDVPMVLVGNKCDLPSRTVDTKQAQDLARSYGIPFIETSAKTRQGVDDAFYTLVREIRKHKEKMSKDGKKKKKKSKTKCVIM
test_name: Binding to KRAS by surface plasmon resonance (SPR), dissociation constant KD
conditions: 1:1 binding model
Where a SMILES comes first, the peptide text is derived from it. Bridges are numbered along the chain shown (N, C = ends). [ ]: non-standard residue; d: D form. The star is where a group is joined. hPhe(3-Cl-4-CF3) = N[C@@H](CCc1ccc(C(F)(F)F)c(Cl)c1)C(=O)O; NEtPhe(4-Me) = CCN[C@@H](Cc1ccc(C)cc1)C(=O)O; NMeD = CN[C@@H](CC(=O)O)C(=O)O; NMeL = CN[C@@H](CC(C)C)C(=O)O; NMeV = CN[C@H](C(=O)O)C(C)C; Morpholide = C1CN(*)CCO1; Ac5c = NC1(C(=O)O)CCCC1; Sar = CNCC(=O)O
measured_attribute: log10(Kd) (log10 of the value in nM)
Answers are given as log10 of Kd in nM.

Req: Value lookup for log10(Kd); key = CCCOC[C@H]1C(=O)N[C@@H]([C@@H](C)CC)C(=O)N(C)CC(=O)N(C)[C@H]2C/C=C\CCN(C2=O)[C@@H](CC2CCC(F)(F)CC2)C(=O)N(C)CC(=O)N[C@@H](CCc2ccc(C(F)(F)F)c(OC)c2)C(=O)N2C[C@@H](C)C[C@H]2C(=O)NC2(CC(C)(C)C2)C(=O)N(C)[C@@H](C(CC)CC)C(=O)N(C)[C@H](C(=O)N(C)C)CC(=O)N1C
Resp: 0.20

Req: Value lookup for log10(Kd); key = CCO[C@@H]1C[C@H]2C(=O)NC3(CC(C)(C)C3)C(=O)N(C)[C@@H](C(CC)CC)C(=O)N(C)[C@H](C(=O)N(C)C)CC(=O)N(C)[C@@H](CC3CC3)C(=O)N[C@@H]([C@@H](C)CC)C(=O)N(C)CC(=O)N(C)[C@H]3C/C=C\CCN(C3=O)[C@@H](CC3CCC(F)(F)CC3)C(=O)N(C)CC(=O)N[C@@H](CCc3ccc(C(F)(F)F)c(OC)c3)C(=O)N2C1
Resp: -0.08

Req: Value lookup for log10(Kd); key = CCO[C@@H]1C[C@H]2C(=O)N(C)C3(CC(C)(C)C3)C(=O)N(C)[C@@H](C3CCCC3)C(=O)N(C)[C@H](C(=O)N(C)C)CC(=O)N(C)[C@H]3CCCCCc4ccc(cc4)C[C@@H](C(=O)N(C)CC(=O)N[C@@H](CCc4ccc(C(F)(F)F)c(OC)c4)C(=O)N2C1)N1CC/C=C\C[C@@H](C1=O)N(C)C(=O)CN(C)C(=O)[C@H]([C@@H](C)CC)NC3=O
Resp: -1.51

Req: Value lookup for log10(Kd); key = CCC(CC)[C@H]1C(=O)N(C)[C@H](C(=O)N(C)C)CC(=O)N(C)[C@@H](COC)C(=O)N[C@@H]([C@@H](C)CC)C(=O)N(C)CC(=O)N(C)[C@H]2C/C=C\CCN(C2=O)[C@@H](Cc2ccc(C)cc2)C(=O)N(C)CC(=O)N[C@@H](CCc2ccc(C(F)(F)F)c(Cl)c2)C(=O)N2CCCCC[C@H]2C(=O)NC2(CC(C)(C)C2)C(=O)N1C
Resp: -0.24

Req: Value lookup for log10(Kd); key = CCO[C@@H]1C[C@H]2C(=O)NC3(CC(C)(C)C3)C(=O)N(C)[C@@H](C3CCCC3)C(=O)N(C)[C@H](C(=O)N(C)CC)CC(=O)N(C)[C@H]3C/C=C/c4ccc(cc4)C[C@@H](C(=O)N(C)CC(=O)N[C@@H](CCc4ccc(Cl)c(Cl)c4)C(=O)N2C1)N1CC/C=C\C[C@@H](C1=O)N(C)C(=O)CN(C)C(=O)[C@H]([C@@H](C)CC)NC3=O
Resp: 0.15

Req: Value lookup for log10(Kd); key = CC[C@H](C)[C@@H]1NC(=O)[C@H](CC(C)C)N(C)C(=O)C[C@@H](C(=O)N2CCOCC2)N(C)C(=O)[C@H](C(C)C)N(C)C(=O)C2(CCCC2)NC(=O)[C@@H]2CCCN2C(=O)[C@H](CCc2ccc(C(F)(F)F)c(Cl)c2)NC(=O)CN(C)C(=O)[C@H](Cc2ccc(C)cc2)N(CC)C(=O)CN(C)C(=O)CN(C)C1=O [PP0044] ([NMeL]I[Sar][Sar][NEtPhe(4-Me)][Sar][hPhe(3-Cl-4-CF3)]P[Ac5c][NMeV][NMeD]-Morpholide; lactam N-11)
Resp: 0.56

Req: Value lookup for log10(Kd); key = CCCOC[C@H]1C(=O)N[C@@H]([C@@H](C)CC)C(=O)N2CCC[C@H]2C(=O)N(C)[C@H]2C/C=C\CCN(C2=O)[C@@H](Cc2ccc(C)cc2)C(=O)N(C)CC(=O)N[C@@H](CCc2ccc(C(F)(F)F)c(OC)c2)C(=O)N2C[C@@H](C)C[C@H]2C(=O)N(C)C2(CCC2)C(=O)N(C)[C@@H](C2CCCC2)C(=O)N(C)[C@H](C(=O)N(C)C)CC(=O)N1C
Resp: -1.21

Req: Value lookup for log10(Kd); key = CCO[C@@H]1C[C@H]2C(=O)NC3(CC(C)(C)C3)C(=O)N(C)[C@@H](CC(C)(C)C)C(=O)N(C)[C@H](C(=O)N(C)C)CC(=O)N(C)[C@@H](COC)C(=O)N[C@@H]([C@@H](C)CC)C(=O)N(C3CC3)CC(=O)N(C)[C@H]3C/C=C\CCN(C3=O)[C@@H](Cc3ccc(C(F)(F)F)cc3)C(=O)N(C)CC(=O)N[C@@H](CCc3ccc(Cl)c(Cl)c3)C(=O)N2C1
Resp: -0.27

Req: Value lookup for log10(Kd); key = CCCO[C@@H]1C[C@H]2C(=O)N(C)C3(CC(C)(C)C3)C(=O)N(C)[C@@H](C(CC)CC)C(=O)N(C)[C@H](C(=O)N(C)C)CC(=O)N(C)[C@@H](COC)C(=O)N[C@@H]([C@@H](C)CC)C(=O)N(C)CC(=O)N(C)[C@H]3C/C=C\CCN(C3=O)[C@@H](Cc3ccc(C)cc3)C(=O)N(C)CC(=O)N[C@@H](CCc3ccc(Cl)c(Cl)c3)C(=O)N2C1
Resp: -0.25

Req: Value lookup for log10(Kd); key = CCC[C@H]1C(=O)N[C@@H](CC(C)C)C(=O)N2C[C@@H](OC)C[C@H]2C(=O)N(C)[C@H]2C/C=C\CCN(C2=O)[C@@H](Cc2ccc(C)cc2)C(=O)N(C)CC(=O)N[C@@H](CCc2ccc(C(F)(F)F)c(Cl)c2)C(=O)N2C[C@H](OCC)C[C@H]2C(=O)NC2(CC(C)(C)C2)C(=O)N(C)[C@@H](C2CCCC2)C(=O)N(C)[C@H](C(=O)N(C)C)CC(=O)N1C
Resp: 0.61

Req: Value lookup for log10(Kd); key = CCC[C@H]1C(=O)N[C@@H]([C@@H](C)CC)C(=O)N(C)CC(=O)N(C)[C@H]2C/C=C\CCN(C2=O)[C@@H](Cc2ccc(C)cc2)C(=O)N(C)CC(=O)N[C@@H](CCc2ccc3c(C)c(C)n(C)c3c2)C(=O)N2C[C@H](OCC)C[C@H]2C(=O)NC2(CC(C)(C)C2)C(=O)N(C)[C@@H](C(CC)CC)C(=O)N(C)[C@H](C(=O)N(C)C)CC(=O)N1C
Resp: 0.74

====

Hi there, I'd appreciate the recorded IC50 for every entry that follows.
System: human lung cancer strain NCI-H441
Type: cell-based
*1 amine or outer side, *2 acyl side, *3 side chain or, on linkers, in order; H or OH if unused. Where a SMILES comes first, the peptide text is derived from it. Bridges are numbered along the chain shown (N, C = ends). [ ]: non-standard residue; d: D form. The star is where a group is joined. hPhe(3-Cl-4-CF3) = N[C@@H](CCc1ccc(C(F)(F)F)c(Cl)c1)C(=O)O; NPrPhe(4-CF3) = CCCN[C@@H](Cc1ccc(C(F)(F)F)cc1)C(=O)O; X46 = C=CCCN([C@@H](Cc1ccc(C)cc1)C(=O)[*:2])[*:1]; Pip(4,4-F2) = O=C(O)[C@@H]1CC(F)(F)CCN1; NMeGly(cPent) = CN[C@H](C(=O)O)C1CCCC1; NMeD = CN[C@@H](CC(=O)O)C(=O)O; NMeL = CN[C@@H](CC(C)C)C(=O)O; Morpholide = C1CN(*)CCO1; NMeA = CN[C@@H](C)C(=O)O; Ac5c = NC1(C(=O)O)CCCC1; Aze = O=C(O)[C@@H]1CCN1; Sar = CNCC(=O)O

Req: Value lookup for IC50; key = CC[C@H](C)[C@@H]1NC(=O)[C@H](CC(F)F)N(C)C(=O)C[C@@H](C(=O)N(C)C)N(C)C(=O)[C@H](C2CCCC2)N(C)C(=O)C2(CC(C)(C)C2)NC(=O)[C@@H]2C[C@@H](C)CN2C(=O)[C@H](CCc2ccc(C(F)(F)F)c(OC)c2)NC(=O)CN(C)C(=O)[C@H](Cc2ccc(C)cc2)N2CC/C=C\C[C@@H](C2=O)N(C)C(=O)CN(C)C1=O
Resp: 0.0184 µM

Req: Value lookup for IC50; key = CCO[C@@H]1C[C@H]2C(=O)NC3(CC(C)(C)C3)C(=O)N(C)[C@@H](C3CCCC3)C(=O)N(C)[C@H](C(=O)N(C)C)CC(=O)N(C)[C@@H](CC(F)(F)F)C(=O)N[C@@H]([C@@H](C)CC)C(=O)N(C)CC(=O)N(C)[C@H]3C/C=C\CCN(C3=O)[C@@H](Cc3ccc(C(F)(F)F)cc3)C(=O)N(C)CC(=O)N[C@@H](CCc3cc(F)c(C(F)(F)F)c(F)c3)C(=O)N2C1
Resp: 0.0027 µM

Req: Value lookup for IC50; key = CC[C@H](C)[C@@H]1NC(=O)[C@H](CC)N(C)C(=O)C[C@@H](C(=O)N2CCOCC2)N(C)C(=O)[C@H](C2CCCC2)N(C)C(=O)C2(CCCC2)NC(=O)[C@@H]2CCCN2C(=O)[C@H](CCc2cc(F)c(C(F)(F)F)c(F)c2)NC(=O)CN(C)C(=O)[C@H](Cc2ccc(C(F)(F)F)cc2)N2CCCC[C@@H](C2=O)N(C)C(=O)CN(C)C1=O
Resp: 0.0049 µM

Req: Value lookup for IC50; key = CCC[C@H]1C(=O)N[C@@H]([C@@H](C)CC)C(=O)N(C)CC(=O)N(C)[C@H]2C/C=C\CCN(C2=O)[C@@H](Cc2ccc(C(F)(F)F)cc2)C(=O)N(C)CC(=O)N[C@@H](CCc2ccc(Cl)c(Cl)c2)C(=O)N2C[C@H](OCC)C[C@H]2C(=O)NC2(CC(C)(C)C2)C(=O)N(C)[C@@H](C2CCCC2)C(=O)N(C)[C@H](C(=O)N(C)C)CC(=O)N1C
Resp: 0.0131 µM

Req: Value lookup for IC50; key = C=CCCN1C(=O)[C@@H]2CCN2C(=O)[C@H](C)N(C)C(=O)[C@H]([C@@H](C)CC)NC(=O)[C@H](CC(C)C)N(C)C(=O)C[C@@H](C(=O)N2CCOCC2)N(C)C(=O)[C@H](C2CCCC2)N(C)C(=O)C2(CCCC2)NC(=O)[C@@H]2CCCN2C(=O)[C@H](CCc2ccc(C(F)(F)F)c(Cl)c2)NC(=O)CN(C)C(=O)[C@@H]1Cc1ccc(C)cc1 [PP0089] ([NMeL]I[NMeA][Aze][X46][Sar][hPhe(3-Cl-4-CF3)]P[Ac5c][NMeGly(cPent)][NMeD]-Morpholide; lactam N-11)
Resp: 0.0055 µM

Req: Value lookup for IC50; key = CC[C@H](C)[C@@H]1NC(=O)[C@@H]2CCCCCN2C(=O)C[C@@H](C(=O)N2CCOCC2)N(C)C(=O)[C@H](C2CCCC2)N(C)C(=O)C2(CCCC2)NC(=O)[C@@H]2CCCN2C(=O)[C@H](CCc2cc(F)c(C(F)(F)F)c(F)c2)NC(=O)CN(C)C(=O)[C@H](Cc2ccc(C(F)(F)F)cc2)N2CCCCC[C@@H](C2=O)N(C)C(=O)CN(C)C1=O
Resp: 0.586 µM

Req: Value lookup for IC50; key = CCO[C@@H]1C[C@H]2C(=O)NC3(CC(C)(C)C3)C(=O)N(C)[C@@H](C(CC)CC)C(=O)N(C)[C@H](C(=O)N(C)C)CC(=O)N(C)[C@H]3CC/C=C/c4ccc(cc4)C[C@@H](C(=O)N(C)CC(=O)N[C@@H](CCc4cc(F)c(C(F)(F)F)c(F)c4)C(=O)N2C1)N1CC/C=C\C[C@@H](C1=O)N(C)C(=O)CN(C)C(=O)[C@H]([C@@H](C)CC)NC3=O
Resp: 0.0144 µM

Req: Value lookup for IC50; key = CCO[C@@H]1C[C@H]2C(=O)NC3(CC(C)(C)C3)C(=O)N(C)[C@@H](C(CC)CC)C(=O)N(C)C(C(C)C)CC(=O)N(C)[C@@H](CC3CC3)C(=O)N[C@@H]([C@@H](C)CC)C(=O)N(C)CC(=O)N(C)[C@H]3C/C=C\CCN(C3=O)[C@@H](Cc3ccc(C(F)(F)F)cc3)C(=O)N(C)CC(=O)N[C@@H](CCc3cc(F)c(C(F)(F)F)c(F)c3)C(=O)N2C1 (stereo partly shown)
Resp: 0.144 µM

Req: Value lookup for IC50; key = CCCN1C(=O)[C@@H]2CCN2C(=O)[C@H](C)N(C)C(=O)[C@H]([C@@H](C)CC)NC(=O)[C@H](CC(C)C)N(C)C(=O)C[C@@H](C(=O)N2CCOCC2)N(C)C(=O)[C@H](C2CCCC2)N(C)C(=O)C2(CCCC2)NC(=O)[C@@H]2CC(F)(F)CCN2C(=O)[C@H](CCc2ccc(C(F)(F)F)c(Cl)c2)NC(=O)CN(C)C(=O)[C@@H]1Cc1ccc(C(F)(F)F)cc1 [PP0285] ([NMeL]I[NMeA][Aze][NPrPhe(4-CF3)][Sar][hPhe(3-Cl-4-CF3)][Pip(4,4-F2)][Ac5c][NMeGly(cPent)][NMeD]-Morpholide; lactam N-11)
Resp: 0.0189 µM

Req: Value lookup for IC50; key = CCO[C@@H]1C[C@H]2C(=O)NC3(CCC3)C(=O)N(C)[C@@H](C3CCCC3)C(=O)N(C)[C@H](C(=O)N(C)C)CC(=O)N(C)[C@@H](CC)C(=O)N[C@@H]([C@@H](C)CC)C(=O)N(C)CC(=O)N(C)[C@H]3CCCCCN(C3=O)[C@@H](Cc3ccc(F)cc3C)C(=O)N(C)CC(=O)N[C@@H](CCc3cc(F)c(C(F)(F)F)c(F)c3)C(=O)N2C1
Resp: 0.0102 µM
